tested on: Mus musculus; experiment: Neurotoxicity in mouse at 300 mg/kg, ip after 0.5 hrs by rotarod test; type: toxicity, organism-based; parameters: dose 300 mg/kg, route intraperitoneal; conditions: in vivo

COMPOUND	Neurotoxicity
CCOC(=O)CNC(=O)c1ccc2oc3ccccc3c(=O)c2c1	Not Active
CCC(O)CNCc1ccc2oc3cc(Cl)ccc3c(=O)c2c1 (racemic)	Neurotoxic
C[C@@H](CO)N(C)Cc1ccc2oc3cc(Cl)ccc3c(=O)c2c1	Neurotoxic
Cl.O=c1c2ccc(Cl)cc2oc2ccc(CNCCCO)cc12	Neurotoxic
O=c1c2ccc(Cl)cc2oc2ccc(CNCCCCCO)cc12	Neurotoxic
O=C(NCCCCO)c1ccc2oc3ccccc3c(=O)c2c1	Not Active
NC(=O)CNC(=O)c1ccc2oc3ccccc3c(=O)c2c1	Not Active
CC[C@H](CO)NCc1ccc2oc3cc(Cl)ccc3c(=O)c2c1	Neurotoxic
CC(CO)NC(=O)c1ccc2oc3ccccc3c(=O)c2c1 (stereo not given)	Not Active
CC[C@@H](CO)NCc1ccc2oc3cc(Cl)ccc3c(=O)c2c1	Neurotoxic
CN(CCO)Cc1ccc2oc3cc(Cl)ccc3c(=O)c2c1	Neurotoxic
CC(CCl)N(C)Cc1ccc2oc3cc(Cl)ccc3c(=O)c2c1.Cl (stereo not given)	Neurotoxic
CC(CO)NC(=O)c1ccc2oc3cc(Cl)ccc3c(=O)c2c1 (racemic)	Not Active
C[C@@H](O)CNCc1ccc2oc3cc(Cl)ccc3c(=O)c2c1	Neurotoxic
CCN(CCO)Cc1ccc2oc3cc(Cl)ccc3c(=O)c2c1	Neurotoxic
